Values from patent US6897209B2

measurement-notes: Normal rat biodistribution
Type: in vivo
test-context: 30 min post-injection, i.v., male Wistar rats, Mean±SD n=3
Classify by measured % ID Muscle: 1 if it is equal to or exceeds 5 % ID, 0 if it is smaller.

• CC(=NO)C(C)(C)NCC(C)(CNC(=O)c1ccc(S(=O)(=O)NCCCCCN)cc1)CNC(C)(C)C(C)=NO (stereo not shown) = 0
• CC(=NO)C(C)(C)NCCN(CCNC(=O)C1CCC(CNC(=O)c2ccc(S(=O)(=O)NCCCCCN)cc2)CC1)CCNC(C)(C)C(C)=NO (stereo not shown) = 1
• CC(CNCc1ccccc1O)(CNCc1ccccc1O)CNC(=O)c1ccc(S(=O)(=O)NCCCCCN)cc1 = 1
• CC(=NO)C(C)(C)NCC(C)(CNC(=O)C1CCC(CNC(=O)c2ccc(S(=O)(=O)NCCCCCN)cc2)CC1)CNC(C)(C)C(C)=NO (stereo not shown) = 0
• CC(=NO)C(C)(C)NCCN(CCNC(=O)c1ccc(S(=O)(=O)NCCCCCN)cc1)CCNC(C)(C)C(C)=NO = 0
• CC(=NO)C(C)(C)NCC(C)(CNC(=O)CCCCCN)CNC(C)(C)C(C)=NO (stereo not shown) = 1

Could you now consider this next molecule?
Problem: Is % ID Muscle for NCCCCCNS(=O)(=O)c1ccc(C(=O)NCCCNC(=O)c2ccc(NN)nc2)cc1 at or above 5 % ID?
Result: 1

* * *

measurement-notes: Normal rat biodistribution
Format: in vivo
test-context: 240 min post-injection, i.v., male Wistar rats, Mean±SD n=3
Consider the following compounds; for each one, report its % ID Liver.

Solved entries (count: 2):
• CC(=NO)C(C)(C)NCCN(CCNC(=O)C1CCC(CNC(=O)c2ccc(S(=O)(=O)NCCCCCN)cc2)CC1)CCNC(C)(C)C(C)=NO (stereo not drawn) = 1 + 0.17 % ID
• CC(=NO)C(C)(C)NCC(C)(CNC(=O)C1CCC(CNC(=O)c2ccc(S(=O)(=O)NCCCCCN)cc2)CC1)CNC(C)(C)C(C)=NO (stereo not drawn) = 1.39 ± 0.29 % ID

Okay, next one:
Problem: Recorded % ID Liver for CC(=NO)C(C)(C)NCCN(CCNC(=O)c1ccc(S(=O)(=O)NCCCCCN)cc1)CCNC(C)(C)C(C)=NO , please?
Result: 2.01 ± 0.11 % ID

* * *

Consider the following compounds; for each one, report its % ID Lung.
measurement-notes: Normal rat biodistribution
Assay type: in vivo
test-context: 2 min post-injection, i.v., male Wistar rats, Mean±SD n=3
Give bare numbers, in % ID.

Solved entries (count: 5):
* CC(=NO)C(C)(C)NCC(C)(CNC(=O)c1ccc(S(=O)(=O)NCCCCCN)cc1)CNC(C)(C)C(C)=NO (stereo not shown) | 1.43
* CC(=NO)C(C)(C)NCC(C)(CNC(=O)C1CCC(CNC(=O)c2ccc(S(=O)(=O)NCCCCCN)cc2)CC1)CNC(C)(C)C(C)=NO (stereo not shown) | 1.61
* CC(=NO)C(C)(C)NCCN(CCNC(=O)C1CCC(CNC(=O)c2ccc(S(=O)(=O)NCCCCCN)cc2)CC1)CCNC(C)(C)C(C)=NO (stereo not shown) | 1.69
* CC(CNCc1ccccc1O)(CNCc1ccccc1O)CNC(=O)c1ccc(S(=O)(=O)NCCCCCN)cc1 | 3.42
* NCCCCCNS(=O)(=O)c1ccc(C(=O)NCCCNC(=O)c2ccc(NN)nc2)cc1 | 1.99

Need % ID Lung for each of these compounds.
1. CC(=NO)C(C)(C)NCC(C)(CNC(=O)CCCCCN)CNC(C)(C)C(C)=NO (stereo not shown)
2. CC(=NO)C(C)(C)NCCN(CCNC(=O)c1ccc(S(=O)(=O)NCCCCCN)cc1)CCNC(C)(C)C(C)=NO

Result:
[1.08, 1.53]

* * *

measurement-notes: Normal rat biodistribution
Type: in vivo
test-context: 2 min post-injection, i.v., male Wistar rats, Mean±SD n=3
endpoint-name: % ID Urine (% ID)
Answers are plain numbers, in % ID.

- CC(=NO)C(C)(C)NCC(C)(CNC(=O)C1CCC(CNC(=O)c2ccc(S(=O)(=O)NCCCCCN)cc2)CC1)CNC(C)(C)C(C)=NO (stereo not shown): 0.13

Need % ID Urine for each of these molecules.
1. CC(CNCc1ccccc1O)(CNCc1ccccc1O)CNC(=O)c1ccc(S(=O)(=O)NCCCCCN)cc1
2. NCCCCCNS(=O)(=O)c1ccc(C(=O)NCCCNC(=O)c2ccc(NN)nc2)cc1

Result:
1. 0.11
2. 0.11

Problem: Recorded % ID Urine for CC(=NO)C(C)(C)NCC(C)(CNC(=O)CCCCCN)CNC(C)(C)C(C)=NO (stereo not shown) , please?
Result: 2.44

* * *

measurement-notes: Normal rat biodistribution
Format: in vivo
test-context: 2 min post-injection, i.v., male Wistar rats, Mean±SD n=3
endpoint-name: % ID Liver (% ID)
Numbers only, in % ID.

• CC(=NO)C(C)(C)NCCN(CCNC(=O)C1CCC(CNC(=O)c2ccc(S(=O)(=O)NCCCCCN)cc2)CC1)CCNC(C)(C)C(C)=NO (stereo not drawn) = 4.3

Need % ID Liver for each of these compounds.
1. NCCCCCNS(=O)(=O)c1ccc(C(=O)NCCCNC(=O)c2ccc(NN)nc2)cc1
2. CC(=NO)C(C)(C)NCC(C)(CNC(=O)CCCCCN)CNC(C)(C)C(C)=NO (stereo not drawn)

Result:
1. 5.38
2. 19.9

* * *

study-target: human plasma clots (Homo sapiens)
Construct: Factor XIII is transformed into its active form Factor XIIIa by thrombin in the presence of calcium ions; from tissue; host or cells: human plasma, clotted in vitro with thrombin and calcium chloride
Sequence (P00488 39-732): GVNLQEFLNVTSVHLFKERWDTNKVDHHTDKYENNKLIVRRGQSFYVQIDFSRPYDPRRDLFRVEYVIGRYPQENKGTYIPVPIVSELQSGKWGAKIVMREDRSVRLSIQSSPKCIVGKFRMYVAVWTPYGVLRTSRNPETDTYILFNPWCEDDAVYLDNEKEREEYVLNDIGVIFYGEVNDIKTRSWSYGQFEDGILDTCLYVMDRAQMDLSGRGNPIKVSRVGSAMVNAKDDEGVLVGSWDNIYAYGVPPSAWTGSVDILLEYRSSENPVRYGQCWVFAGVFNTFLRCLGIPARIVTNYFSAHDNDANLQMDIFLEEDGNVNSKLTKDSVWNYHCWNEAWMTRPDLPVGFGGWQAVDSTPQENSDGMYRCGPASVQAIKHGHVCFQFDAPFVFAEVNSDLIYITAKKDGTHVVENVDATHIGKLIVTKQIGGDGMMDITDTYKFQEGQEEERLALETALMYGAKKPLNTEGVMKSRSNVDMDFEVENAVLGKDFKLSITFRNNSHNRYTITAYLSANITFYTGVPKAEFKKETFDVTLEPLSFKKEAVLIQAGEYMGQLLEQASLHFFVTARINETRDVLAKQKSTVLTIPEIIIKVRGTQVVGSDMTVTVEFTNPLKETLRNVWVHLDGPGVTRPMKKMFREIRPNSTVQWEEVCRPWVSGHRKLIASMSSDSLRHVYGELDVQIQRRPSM
measurement-notes: Incorporation into human plasma clots (in vitro plasma clot assay)
Assay type: biochemical
test-context: % retained with thrombin − % retained no thrombin
Classify by measured % specific uptake*: true if it is equal to or exceeds 10%, false if it is smaller.

• CC(=O)SCC(=O)NCC(=O)NCC(=O)NCC(=O)NCCCNC(=O)c1ccc(S(=O)(=O)NCCCCCN)cc1 = true
• CC(=NO)C(C)(C)NCC(C)(CNC(=O)CCCCCN)CNC(C)(C)C(C)=NO (centres unmarked) = false
• CC(CNCc1ccccc1O)(CNCc1ccccc1O)CNC(=O)c1ccc(S(=O)(=O)NCCCCCN)cc1 = true
• NCCCCCNS(=O)(=O)c1ccc(C(=O)NCCCNC(=O)c2ccc(NN)nc2)cc1 = true
• CC(=NO)C(C)(C)NCCN(CCNC(=O)c1ccc(S(=O)(=O)NCCCCCN)cc1)CCNC(C)(C)C(C)=NO = false
• CC(=NO)C(C)(C)NCC(C)(CNC(=O)c1ccc(S(=O)(=O)NCCCCCN)cc1)CNC(C)(C)C(C)=NO (centres unmarked) = true
• CC(=NO)C(C)(C)NCC(C)(CNC(=O)[C@@H](Cc1ccccc1)NC(=O)CCCCCN)CNC(C)(C)C(C)=NO (some centres unmarked) = false

Problem: Is % specific uptake* for CC(=NO)C(C)(C)NCC(C)(CNC(=O)N1CCN(CNC(=O)c2ccc(S(=O)(=O)NCCCCCN)cc2)CC1)CNC(C)(C)C(C)=NO (centres unmarked) at or above 10%?
Result: true

* * *

measurement-notes: Normal rat biodistribution
Type: in vivo
test-context: 60 min post-injection, i.v., male Wistar rats, Mean±SD n=3
endpoint-name: % ID Blood
For clarity, give the value followed by its unit.

* CC(=NO)C(C)(C)NCCN(CCNC(=O)C1CCC(CNC(=O)c2ccc(S(=O)(=O)NCCCCCN)cc2)CC1)CCNC(C)(C)C(C)=NO (stereo not shown) | 2.23 ± 0.15 % ID

Need % ID Blood for each of these molecules.
1. CC(=NO)C(C)(C)NCC(C)(CNC(=O)C1CCC(CNC(=O)c2ccc(S(=O)(=O)NCCCCCN)cc2)CC1)CNC(C)(C)C(C)=NO (stereo not shown)
2. CC(=NO)C(C)(C)NCC(C)(CNC(=O)CCCCCN)CNC(C)(C)C(C)=NO (stereo not shown)
3. CC(CNCc1ccccc1O)(CNCc1ccccc1O)CNC(=O)c1ccc(S(=O)(=O)NCCCCCN)cc1

Result:
1: 0.39 ± 0.05 % ID; 2: 0.43 ± 0.07 % ID; 3: 1.84 ± 0.19 % ID

* * *

measurement-notes: Normal rat biodistribution
Type: in vivo
test-context: 240 min post-injection, i.v., male Wistar rats, Mean±SD n=3
endpoint-name: % ID Heart

Solved entries (count: 2):
* NCCCCCNS(=O)(=O)c1ccc(C(=O)NCCCNC(=O)c2ccc(NN)nc2)cc1 | 0.02 + 0.01 % ID
* CC(CNCc1ccccc1O)(CNCc1ccccc1O)CNC(=O)c1ccc(S(=O)(=O)NCCCCCN)cc1 | 0.02 + 0.01 % ID

Problem: Recorded % ID Heart for CC(=NO)C(C)(C)NCC(C)(CNC(=O)CCCCCN)CNC(C)(C)C(C)=NO (stereo not drawn) , please?
Result: 0.01 + 0.04 % ID
